- measured-target: UniProt Q8ILY1
- Sequence (Q8ILY1 entry or part of it): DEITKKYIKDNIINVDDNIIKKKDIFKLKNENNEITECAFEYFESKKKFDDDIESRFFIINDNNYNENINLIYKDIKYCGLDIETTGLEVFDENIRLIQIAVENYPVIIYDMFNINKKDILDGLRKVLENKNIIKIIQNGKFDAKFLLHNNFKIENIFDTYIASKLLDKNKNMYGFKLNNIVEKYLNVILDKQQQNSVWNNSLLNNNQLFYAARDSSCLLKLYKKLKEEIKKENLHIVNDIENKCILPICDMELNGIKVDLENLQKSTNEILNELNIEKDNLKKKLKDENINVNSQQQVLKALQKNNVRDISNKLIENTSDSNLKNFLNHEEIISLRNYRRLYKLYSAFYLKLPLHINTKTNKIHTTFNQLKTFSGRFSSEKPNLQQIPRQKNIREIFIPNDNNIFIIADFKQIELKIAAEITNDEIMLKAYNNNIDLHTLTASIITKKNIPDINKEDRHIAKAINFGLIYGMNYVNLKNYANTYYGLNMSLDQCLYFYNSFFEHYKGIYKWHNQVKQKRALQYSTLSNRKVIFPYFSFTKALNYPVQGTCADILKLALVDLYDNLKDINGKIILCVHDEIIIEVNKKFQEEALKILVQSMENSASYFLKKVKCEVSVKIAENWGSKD
- protocol-notes: Fluorescence-based high-throughput DNA polymerase assay (molecular beacon), primary screen and dose-response;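 also: test concentration in µM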
- Type: biochemical
- details: DRC-1; 180'; concentration 5
- Description: The HT assay employs a molecular beacon, a stem-loop DNA template with a Cy3 dye and the Black Hole Quencher on the 3′ and 5′ ends of the DNA, respectively. Pf-apPOL concentration is based on a calculated absorptivity of ε280 = 56750 M^−1 cm^−1. […] To identify apPOL inhibitors we utilised our previously developed high-throughput DNA polymerase assay. […] The assay accurately recapitulates the kinetic behaviour of apPOL, as measured through more conventional low-throughput gel-based assays. […]
Hi, to clarify the labels: Met covers % inhibition apPOL 180' from 8% upward, Not met covers anything below 8%.

{"mol-smiles": "CCOc1ccc(/C=C2\\N=C(c3cc([N+](=O)[O-])cc([N+](=O)[O-])c3)OC2=O)cc1", "assigned-label": "Met"}
{"mol-smiles": "O=C(NNC(=O)c1ccc(Cl)cc1)C(=O)NNC(=O)c1ccc(Cl)cc1", "assigned-label": "Met"}
{"mol-smiles": "COc1ccc(-c2cc(=O)c3cc(O)ccc3o2)cc1OC", "assigned-label": "Not met"}
{"mol-smiles": "O=C(O)CCS(=O)(=O)c1ccc(-c2ccc(S(=O)(=O)CCC(=O)O)cc2)cc1", "assigned-label": "Not met"}
{"mol-smiles": "Cc1cccc(-c2nnc3ccc(NS(=O)(=O)c4ccc(C)c(C)c4)nn23)c1", "assigned-label": "Not met"}
{"mol-smiles": "Cc1ccc(C(=O)/C=C/C=C/C=C/N(C)C)o1", "assigned-label": "Met"}
{"mol-smiles": "COc1ccc2c(c1)CCc1c-2nc2ccc(Br)cc2c1C(=O)O", "assigned-label": "Met"}
